Target: Presenilin-1-comprised γ-secretase (Homo sapiens, UniProt P49768)
Construct: expressed in transfected cells; host or cells: mouse fibroblasts derived from PS1/PS2 double knockout cells, pCF vector
Test: Aβ1-x ELISA in Presenilin-1 transfected PS1/PS2 double knockout mouse fibroblasts
Format: cell-based
Conditions: column A; Aβ1-x, Presenilin-1 transfected cells, overnight; read-out: PS1 EC50 (nM) A
Could you please mark Satisfied for values of EC50 below 60 nM and Not satisfied for values at or above it?

> print(dat)
                            compound.smiles          label
1  Cc1nc(-c2ccc(CN([C@@H]3CCCCNC3=O)S(=O)(=O)c3ccc(Cl)cc3)cc2)no1  Not satisfied
2  O=C1NCCCC[C@H]1N(Cc1ccc2snnc2c1)S(=O)(=O)c1ccc(Cl)cc1      Satisfied
3  O=C1NCCCC[C@H]1N(Cc1cnc(N2CCCCC2)s1)S(=O)(=O)c1ccc(Cl)cc1  Not satisfied
4  C[C@@H](NC(=O)c1ccc(CN([C@@H]2CCCCNC2=O)S(=O)(=O)c2ccc(Cl)cc2)cc1)c1ccccc1      Satisfied
5  O=C1NCCCC[C@H]1N(Cc1ccc2nccnc2c1)S(=O)(=O)c1ccc(Cl)cc1      Satisfied
